Exercise: state measured IC50 for each of the molecules provided.
Molecular target: recombinant human Bcl-2-G101V protein (Homo sapiens (Human), UniProt P10415, G101V)
Experiment: Bcl-2-G101V TR-FRET Assay
Assay type: binding
Settings: Bcl-2 G101V mutant, TR-FRET; read-out: Biochemical assay (IC50, nM) Bcl-2 G101V
Please respond with the number in nM and leave the unit unwritten.

Measured IC50 of C#Cc1ccc(CN2CCN(C3CC4(CCN(c5ccc(C(=O)NS(=O)(=O)c6ccc(NC[C@H]7CC[C@](C)(O)CC7)c([N+](=O)[O-])c6)c(Oc6cnc7[nH]ccc7c6)c5)CC4)C3)C(c3ccccc3C(C)C)C2)cc1OC (stereo partly shown) : 1.5

Measured IC50 of COc1cc(CN2CCN(C3CC4(C3)CN(c3ccc(C(=O)NS(=O)(=O)c5ccc(NC[C@H]6CC[C@](C)(O)CC6)c([N+](=O)[O-])c5)c(Oc5cnc6[nH]ccc6c5)c3)C4)[C@H](c3ccccc3C(C)C)C2)ccc1C(C)C : 2.9

Measured IC50 of COc1ccc(CN2CCN(C3CC4(CCN(c5ccc(C(=O)NS(=O)(=O)c6ccc(NC[C@H]7CC[C@](C)(O)CC7)c([N+](=O)[O-])c6)c(Oc6cnc7[nH]ccc7c6)c5)CC4)C3)C(c3ccccc3C(C)C)C2)cc1OC1CC1 (stereo partly shown) : 0.64

Measured IC50 of CC(C)c1ccccc1[C@@H]1CN(Cc2ccc3c(c2)OCC3)CCN1C1CC2(C1)CN(c1ccc(C(=O)NS(=O)(=O)c3ccc(NC[C@H]4CC[C@](C)(O)CC4)c([N+](=O)[O-])c3)c(Oc3cnc4[nH]cc(F)c4c3)c1)C2 : 0.4
